Test system: Hepatocyte
Test: Metabolic stability in human hepatocytes assessed as metabolic rate per million cells
Format: ADME, cell-based
EXPERIMENTAL_READOUT: Stability (nmol/min/million cells)
Report the figure in nmol/min/million cells without appending any unit label.

Prompt line: Find the recorded Stability belonging to CCCNC(=O)c1cn2ncnc(Nc3cc(C(=O)NC4CC4)ccc3C)c2c1C and report it.
Response line: 0.015

* * *

Test: Volume of distribution at steady state in BALB/c mouse at 5 mg/kg, iv and 10 mg/kg, po
Format: ADME, organism-based
Conditions: in vivo, read-out: Vdss
EXPERIMENTAL_READOUT: Vd (L/kg)
Report the figure in L/kg without appending any unit label.

Prompt line: Find the recorded Vd belonging to CCCNC(=O)c1cn2ncnc(Nc3cc(C(=O)NC4CC4)ccc3C)c2c1C and report it.
Response line: 0.9

* * *

Assay: AUC (0 to 8 hrs) in BALB/c mouse at 5 mg/kg, iv and 10 mg/kg, po
Type: ADME, organism-based
Conditions: plasma
EXPERIMENTAL_READOUT: AUC(0-t) (µM·h)
Report the figure in µM·h without appending any unit label.

Prompt line: Find the recorded AUC(0-t) belonging to CCCNC(=O)c1cn2ncnc(Nc3cc(C(=O)NC4CC4)ccc3C)c2c1C and report it.
Response line: 75.5

* * *

Test: Oral bioavailability in Sprague-Dawley rat at 10 mg/kg
Format: ADME, organism-based
Settings: in vivo
EXPERIMENTAL_READOUT: bioavailability
Hi, when you answer, please include the unit after the number. Thanks!

Prompt line: Find the recorded bioavailability belonging to CCCNC(=O)c1cn2ncnc(Nc3cc(C(=O)NC4CC4)ccc3C)c2c1C and report it.
Response line: 60%

* * *

Experiment: AUC (0 to 24 hrs) in Sprague-Dawley rat at 2.5 mg/kg, iv and 10 mg/kg, po
Assay type: ADME, organism-based
Conditions: plasma
EXPERIMENTAL_READOUT: AUC(0-t) (µM·h)
Report the figure in µM·h without appending any unit label.

Prompt line: Find the recorded AUC(0-t) belonging to CCCNC(=O)c1cn2ncnc(Nc3cc(C(=O)NC4CC4)ccc3C)c2c1C and report it.
Response line: 45.4

* * *

Assay: Tmax in BALB/c mouse at 5 mg/kg, iv and 10 mg/kg, po
Assay type: ADME, organism-based
Settings: in vivo
EXPERIMENTAL_READOUT: Tmax (h)
Report the figure in h without appending any unit label.

Prompt line: Find the recorded Tmax belonging to CCCNC(=O)c1cn2ncnc(Nc3cc(C(=O)NC4CC4)ccc3C)c2c1C and report it.
Response line: 1

* * *

Tested on: Hepatocyte
Assay: Metabolic stability in rat hepatocytes assessed as metabolic rate per million cells
Type: ADME, cell-based
EXPERIMENTAL_READOUT: Stability (nmol/min/million cells)
Report the figure in nmol/min/million cells without appending any unit label.

Prompt line: Checklist item: Stability tested on Hepatocyte, entry CCCNC(=O)c1cn2ncnc(Nc3cc(C(=O)NC4CC4)ccc3C)c2c1C , value?
Response line: 0.015

* * *

Experiment: Oral bioavailability in BALB/c mouse at 10 mg/kg
Type: ADME, organism-based
Settings: in vivo
EXPERIMENTAL_READOUT: bioavailability (%)
Report the figure in % without appending any unit label.

Prompt line: Find the recorded bioavailability belonging to CCCNC(=O)c1cn2ncnc(Nc3cc(C(=O)NC4CC4)ccc3C)c2c1C and report it.
Response line: 90

* * *

Assay: Volume of distribution at steady state in Sprague-Dawley rat at 2.5 mg/kg, iv and 10 mg/kg, po
Assay type: ADME, organism-based
Details: in vivo, read-out: Vdss
EXPERIMENTAL_READOUT: Vd (L/kg)
Report the figure in L/kg without appending any unit label.

Prompt line: Find the recorded Vd belonging to CCCNC(=O)c1cn2ncnc(Nc3cc(C(=O)NC4CC4)ccc3C)c2c1C and report it.
Response line: 1.1

* * *

Experiment: Tmax in Sprague-Dawley rat at 2.5 mg/kg, iv and 10 mg/kg, po
Type: ADME, organism-based
Settings: in vivo
EXPERIMENTAL_READOUT: Tmax (h)
Report the figure in h without appending any unit label.

Prompt line: Find the recorded Tmax belonging to CCCNC(=O)c1cn2ncnc(Nc3cc(C(=O)NC4CC4)ccc3C)c2c1C and report it.
Response line: 1.5

* * *

Experiment: Half life in Sprague-Dawley rat at 2.5 mg/kg, iv and 10 mg/kg, po
Assay type: ADME, organism-based
Conditions: in vivo
EXPERIMENTAL_READOUT: half-life (h)
Report the figure in h without appending any unit label.

Prompt line: Find the recorded half-life belonging to CCCNC(=O)c1cn2ncnc(Nc3cc(C(=O)NC4CC4)ccc3C)c2c1C and report it.
Response line: 4

* * *

Assay: Half life in BALB/c mouse at 5 mg/kg, iv and 10 mg/kg, po
Format: ADME, organism-based
Conditions: in vivo
EXPERIMENTAL_READOUT: half-life (min)
Report the figure in min without appending any unit label.

Prompt line: Find the recorded half-life belonging to CCCNC(=O)c1cn2ncnc(Nc3cc(C(=O)NC4CC4)ccc3C)c2c1C [BMS-582949] and report it.
Response line: 156
